experiment: qHTS assay to identify small molecule agonists of the NFkB signaling pathway (AID 1159509); conditions: NFkB-bla ME-180 cells, beta-lactamase FRET ratio, 5 h; series mostly up to 61 µM; further: on the % scale 0 is the no-effect control and ±100 the full control effect
Results filed as inconclusive are left out. Activity calls are given as the source filed them. The call rests on the fitted dose curve; in most records, active means well fitted curve in the direction sought with a large enough effect in the signal ratio in the repeat runs (not every such curve was filed as active); inconclusive means weak or mixed curves, or a change in a side signal; inactive means no such curve, though single readings can be large or run the other way; the % refers to the signal ratio.

{"molecule": "O=C1c2ccccc2C(=O)N1CCl", "activation": "inactive"}
{"molecule": "CC(C)C(=O)OCc1cccc(OC(=O)[C@@H]2N3C(=O)[C@@H](NC(=O)Cc4ccccc4)[C@H]3SC2(C)C)c1", "activation": "inactive"}
{"molecule": "C[C@H](CCC(=O)O)[C@H]1CC[C@H]2[C@@H]3C(=O)C[C@@H]4CC(=O)CC[C@]4(C)[C@H]3CC(=O)[C@]12C", "activation": "inactive"}
{"molecule": "O=C(CCNNC(=O)c1ccncc1)NCc1ccccc1", "activation": "inactive"}
{"molecule": "CNS(=O)(=O)CCc1ccc2[nH]cc(C3CCN(C)CC3)c2c1", "activation": "inactive"}
{"molecule": "OC[C@H](Cc1cccc(O)c1)[C@H](CO)Cc1cccc(O)c1", "activation": "inactive"}
{"molecule": "O=C(O)CCSSCCC(=O)O", "activation": "inactive"}
{"molecule": "CC(=O)N[C@@H](CCC(=O)O)C(=O)O", "activation": "inactive"}
{"molecule": "CC1(CO)CN(c2ccccc2)NC1=O (stereo unspecified)", "activation": "inactive"}
{"molecule": "CC(C)CC(C)CC(C)CC(C)COC(=O)c1ccccc1C(=O)OCC(C)CC(C)CC(C)CC(C)C (stereo unspecified)", "activation": "inactive"}
{"molecule": "O=C(O)Cc1ccc(Cl)cc1Cl", "activation": "inactive"}

* * *

Experiment: qHTS assay for identifying genotoxic compounds that show differential cytotoxicity against isogenic chicken DT40 cell lines with known DNA damage response pathways - wild type cell line (AID 743012); further: nearly all actives have a fitted effect of over 60% in size
Conditions: DT40 wild type chicken cells viability, CellTiter-Glo, 40 h; series mostly up to 68.4 µM
From the text: U.S. Tox21 Program National Center for Advancing Translational Sciences [NCATS] NIH Chemical Genomics Center [NCGC] U.S. Environmental Protection Agency [EPA] National Institutes of Environmental Health Sciences [NIEHS] National Toxicology Program [NTP] U.S. Food and Drug Administration [FDA] Tox21 Assay Overview: DNA repair pathways play a critical role in cellular homeostasis by repairing DNA damage induced by endogenous processes and xenobiotics. […]
Records with an inconclusive call do not appear. Activity calls are given as the source filed them. Calls come from the whole dose curve; as a rule, active = well fitted cell-killing curve with a large enough effect in the repeat runs; inconclusive = weak or mixed curves, or effect the other way; inactive = no such curve, though single readings can be large or run the other way.
Classes used: active, inactive

{"compound": "Nc1ncnc(Nc2ccccc2)n1", "classification": "inactive"}
{"compound": "CC(COC(C)(C)C)OCCCO (stereo not drawn)", "classification": "inactive"}
{"compound": "CO[C@@H]1[C@@H](OC(N)=O)[C@@H](O)[C@H](Oc2ccc3c(O)c(NC(=O)c4ccc(O)c(CC=C(C)C)c4)c(=O)oc3c2C)OC1(C)C", "classification": "inactive"}
{"compound": "CCCCC(CC)COCCO (stereo not drawn)", "classification": "inactive"}
{"compound": "O=C1c2ccccc2C(=O)N1CCl", "classification": "inactive"}
{"compound": "O=C(OCC1(COC(=O)c2cccnc2)CCCC(COC(=O)c2cccnc2)(COC(=O)c2cccnc2)C1O)c1cccnc1", "classification": "inactive"}
{"compound": "C=CC(OCC)OCC", "classification": "inactive"}
{"compound": "CCC(C=O)CC", "classification": "inactive"}
{"compound": "COc1ccc(S(=O)(=O)N2c3ccc(Cl)cc3[C@@](O)(c3ccccc3Cl)[C@H]2C(=O)N2CCC[C@@H]2C(N)=O)cc1OC", "classification": "inactive"}
{"compound": "C=C(C)C(=O)OCCOP(=O)(O)OCCOC(=O)C(=C)C", "classification": "inactive"}
{"compound": "CCc1ccc(C=O)cc1", "classification": "inactive"}
{"compound": "CC(C)c1ccc2cc(C(C)C)ccc2c1", "classification": "inactive"}
{"compound": "CCCCCCOc1ccccc1C(N)=O", "classification": "active"}
{"compound": "C=CCCCCCCCCCCCC", "classification": "inactive"}
{"compound": "COc1nccnc1NS(=O)(=O)c1ccc(N)cc1", "classification": "inactive"}
{"compound": "CC(C)=O", "classification": "inactive"}
{"compound": "CCOc1cc([N+](=O)[O-])c(OCC)cc1N1CCOCC1", "classification": "inactive"}
{"compound": "Cc1cc2cc3c(C)cc(=O)oc3c(C)c2o1", "classification": "inactive"}
{"compound": "CCCCCOC(=O)CCC", "classification": "inactive"}
{"compound": "O=C1CCCC(=O)O1", "classification": "inactive"}
{"compound": "CC(=O)CCCCn1c(=O)c2c(ncn2C)n(C)c1=O", "classification": "inactive"}
{"compound": "C=C(C)C1CCC(C)(O)CC1 (stereo not drawn)", "classification": "inactive"}
{"compound": "CCCCNc1ccc(C(=O)OCCN(C)C)cc1", "classification": "active"}
{"compound": "COc1ccc(Br)c(C)c1", "classification": "inactive"}
{"compound": "COc1ccc(OC)c(Cl)c1", "classification": "inactive"}
{"compound": "NCCN1CCOCC1", "classification": "inactive"}
{"compound": "COc1ccc2c(c1)C(=O)N(CCc1ccc(S(=O)(=O)NC(=O)NC3CCCCC3)cc1)C(=O)C2(C)C", "classification": "inactive"}
{"compound": "O=C1c2cccc3c2[C@H](CCC3)CN1[C@@H]1CN2CCC1CC2", "classification": "active"}
{"compound": "CN(C)CCOCCO", "classification": "inactive"}
{"compound": "CC(C)CCCC(C)(C)O", "classification": "inactive"}
{"compound": "Brc1ccc(-c2ccccc2)cc1", "classification": "inactive"}
{"compound": "CC(=O)Nc1ccc(S(=O)(=O)Nc2ccc([N+](=O)[O-])cc2)cc1", "classification": "inactive"}
{"compound": "COc1cc(C(=S)N2CCOCC2)cc(OC)c1OC", "classification": "inactive"}
{"compound": "C[Si](C)(C)C", "classification": "inactive"}
{"compound": "C[C@@H](O)[C@H]1C(=O)N2C(C(=O)O)=C(SCCN=CN)C[C@H]12", "classification": "inactive"}
{"compound": "CC(CC=O)CCCC(C)(C)O (stereo not drawn)", "classification": "inactive"}
{"compound": "CC1(C)S[C@@H]2[C@H](N=CN3CCCCCC3)C(=O)N2[C@H]1C(=O)O", "classification": "inactive"}
{"compound": "CC(C)C(=O)OCCc1ccccc1", "classification": "inactive"}
{"compound": "CC(C)C[C@H](NC(=O)CNC(=O)[C@H](Cc1ccc(O)cc1)NC(=O)[C@H](CO)NC(=O)[C@H](Cc1c[nH]c2ccccc12)NC(=O)[C@H](Cc1cnc[nH]1)NC(=O)[C@@H]1CCC(=O)N1)C(=O)N[C@@H](CCCN=C(N)N)C(=O)N1CCC[C@H]1C(=O)NCC(N)=O (stereo in doubt)", "classification": "inactive"}
{"compound": "CN1C(C)(C)CCCC1(C)C", "classification": "inactive"}
{"compound": "C[C@H](CCC(=O)O)[C@H]1CC[C@H]2[C@@H]3C(=O)C[C@@H]4CC(=O)CC[C@]4(C)[C@H]3CC(=O)[C@]12C", "classification": "inactive"}
{"compound": "CCCCCCCCC1CCC(=O)O1 (stereo not drawn)", "classification": "inactive"}
{"compound": "CC(C)(C)OC(=O)c1ccc(O)cc1", "classification": "inactive"}
{"compound": "O=C1c2ccccc2C(=O)c2cc(S(=O)(=O)O)ccc21", "classification": "inactive"}
{"compound": "CCCCCCCCCCCCCC", "classification": "inactive"}
{"compound": "COc1cc(NS(=O)(=O)c2ccc(N)cc2)nc(OC)n1", "classification": "inactive"}
{"compound": "CCCCCCCC/C=C\\CCCCCCCC(=O)OCCCC", "classification": "inactive"}
{"compound": "CCCCCCCCCC(C)=O", "classification": "inactive"}
{"compound": "CC(N)C(=O)OC(C)(C)Cc1ccc(Cl)cc1 (stereo not drawn)", "classification": "active"}
{"compound": "O=C(CCN1CCN(CCO)CC1)N1c2ccccc2Sc2ccc(C(F)(F)F)cc21", "classification": "active"}
{"compound": "COCCOCCOCCOCCOCCO", "classification": "inactive"}
{"compound": "O=C1O[C@@H]2[C@@H](O)[C@H](O)O[C@@H]2[C@H]1O", "classification": "inactive"}
{"compound": "NNc1nnc(NN)c2ccccc12", "classification": "inactive"}

* * *

target: Aryl hydrocarbon receptor (Homo sapiens) (UniProt P35869); assay: qHTS assay to identify small molecule that activate the aryl hydrocarbon receptor (AhR) signaling pathway (AID 743085); settings: HepG2 AhR-luc (HG2L7.5c1), luciferase, 24 h; series mostly up to 70.3 µM; further: nearly all actives have a fitted effect of over 15% in size;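 on activation: HG2L7.5c1 human HepG2 liver cells with stably integrated DRE-driven firefly reporter; on the % scale 0 is the no-effect control and ±100 the full control effect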
Sequence (P35869 whole entry, looked up): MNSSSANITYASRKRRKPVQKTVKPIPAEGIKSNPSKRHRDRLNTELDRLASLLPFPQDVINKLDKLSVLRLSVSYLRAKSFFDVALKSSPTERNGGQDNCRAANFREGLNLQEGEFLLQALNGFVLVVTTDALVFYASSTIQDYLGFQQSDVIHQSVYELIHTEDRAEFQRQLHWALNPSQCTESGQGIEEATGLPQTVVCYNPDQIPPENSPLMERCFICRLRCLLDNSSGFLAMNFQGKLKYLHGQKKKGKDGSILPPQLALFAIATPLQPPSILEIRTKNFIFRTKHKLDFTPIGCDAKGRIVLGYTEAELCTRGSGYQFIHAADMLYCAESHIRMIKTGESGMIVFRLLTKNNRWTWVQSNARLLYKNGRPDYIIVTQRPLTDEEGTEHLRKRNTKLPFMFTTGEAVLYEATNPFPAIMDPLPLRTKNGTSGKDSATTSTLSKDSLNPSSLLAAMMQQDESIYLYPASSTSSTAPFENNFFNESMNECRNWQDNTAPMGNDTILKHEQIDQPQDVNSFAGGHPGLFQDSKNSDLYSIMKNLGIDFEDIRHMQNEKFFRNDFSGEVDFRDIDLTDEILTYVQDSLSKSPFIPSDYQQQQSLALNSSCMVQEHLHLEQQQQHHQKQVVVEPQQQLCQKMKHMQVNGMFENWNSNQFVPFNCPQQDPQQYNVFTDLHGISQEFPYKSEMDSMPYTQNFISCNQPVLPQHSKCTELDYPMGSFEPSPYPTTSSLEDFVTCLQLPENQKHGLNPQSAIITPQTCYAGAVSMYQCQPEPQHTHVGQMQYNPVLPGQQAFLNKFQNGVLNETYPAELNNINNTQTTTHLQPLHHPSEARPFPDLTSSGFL
Results filed as inconclusive are left out. Activity calls are given as the source filed them. Calls follow the shape of the dose curve; as a rule, active = well fitted activation curve with a large enough effect in the repeat runs; inconclusive = weak or mixed curves; inactive = no such curve, though single readings can be large or run the other way.
Outcomes: label 1 = active, label 0 = inactive

{"compound": "C[C@H](CCC(=O)O)[C@H]1CC[C@H]2[C@@H]3C(=O)C[C@@H]4CC(=O)CC[C@]4(C)[C@H]3CC(=O)[C@]12C", "classification": "label 0"}
{"compound": "CN(C)C(=O)CNC(=O)Cc1ccccc1", "classification": "label 0"}
{"compound": "CNC(=O)[C@H]1O[C@@H](n2cnc3c(NCc4cc(Cl)ccc4OCc4cc(C)no4)ncnc32)[C@H](O)[C@@H]1N", "classification": "label 0"}
{"compound": "CC1=CCC(C(C)C)=CC1", "classification": "label 0"}
{"compound": "COc1ccc(-c2cc(=O)c3c(O)cc(O[C@@H]4O[C@H](CO[C@@H]5O[C@@H](C)[C@H](O)[C@@H](O)[C@H]5O)[C@@H](O)[C@H](O)[C@H]4O)cc3o2)cc1O", "classification": "label 1"}
{"compound": "CC(C)N(c1ccccc1)C(C)C", "classification": "label 0"}
{"compound": "Cc1ccc2c(c1)OCC(=O)CO2", "classification": "label 0"}
{"compound": "CC1(C)S[C@@H]2[C@H](N=CN3CCCCCC3)C(=O)N2[C@H]1C(=O)O", "classification": "label 0"}
{"compound": "CC/C=C\\CC1=C(C)CCC1=O", "classification": "label 0"}
{"compound": "COCCOCCOCCOCCO", "classification": "label 0"}
{"compound": "CC(=O)NCc1c(I)c(NC(C)=O)c(I)c(C(=O)O)c1I", "classification": "label 0"}
{"compound": "O=S(=O)(O)CCN1CCN(CCO)CC1", "classification": "label 0"}
{"compound": "CCOC(=O)[C@H](CCc1ccccc1)N[C@@H](C)C(=O)N1C(=O)N(C)C[C@H]1C(=O)O", "classification": "label 0"}
{"compound": "CCCC/C=C/C=C\\C=O", "classification": "label 0"}
{"compound": "COc1ccc2c(c1)C(=O)N(CCc1ccc(S(=O)(=O)NC(=O)NC3CCCCC3)cc1)C(=O)C2(C)C", "classification": "label 0"}
{"compound": "CCCC/C=C\\CCCCCCCCCC=O", "classification": "label 0"}
{"compound": "ClCCCl", "classification": "label 0"}
{"compound": "CCCCCOC(=O)CCC", "classification": "label 0"}
{"compound": "C[C@@H](Oc1ccc(CNC(=O)c2cccnc2Oc2ccc3c(c2)OCO3)c(F)c1)C(=O)O", "classification": "label 0"}
{"compound": "CCCCNc1ccc(C(=O)OCCN(C)C)cc1", "classification": "label 0"}
{"compound": "COc1cc(NS(=O)(=O)c2ccc(N)cc2)nc(OC)n1", "classification": "label 0"}
{"compound": "C[C@H](N)[C@H](O)c1cccc(O)c1", "classification": "label 0"}
{"compound": "COC(=O)c1ccccc1C(=O)c1ccc(OCCN2CCCCC2)cc1", "classification": "label 0"}
{"compound": "CCOC(=O)c1ccc(OC(=O)CCCCCN=C(N)N)cc1", "classification": "label 0"}
{"compound": "CCCCC(CC)COCCO (centres undefined)", "classification": "label 0"}
{"compound": "CCCOC(OCCC)OCCC", "classification": "label 0"}
{"compound": "C=CCCCCCCCCCCCC", "classification": "label 0"}
{"compound": "C=C(C)C1CCC(C)(O)CC1 (centres undefined)", "classification": "label 0"}
{"compound": "CC(C)=O", "classification": "label 0"}
{"compound": "NNc1nnc(NN)c2ccccc12", "classification": "label 1"}
{"compound": "O=C1O[C@@H]2[C@@H](O)[C@H](O)O[C@@H]2[C@H]1O", "classification": "label 0"}
{"compound": "O=C1c2ccccc2C(=O)C1c1ccccc1", "classification": "label 0"}
{"compound": "CCOC(=O)/C=C/c1ccccc1", "classification": "label 0"}
{"compound": "Cc1ccccc1OCC(O)CO (centres undefined)", "classification": "label 0"}
{"compound": "CCC(CC)CO", "classification": "label 0"}
{"compound": "CC(C)NCC(O)COc1ccc(COCCOC(C)C)cc1 (centres undefined)", "classification": "label 0"}
{"compound": "CCCCCCCCCC(C)=O", "classification": "label 0"}
{"compound": "C=C(C)C(=O)OCCN(CC)CC", "classification": "label 0"}
{"compound": "CC(=O)Nc1ccc(S(=O)(=O)Cl)cc1", "classification": "label 0"}
{"compound": "CN1C(C)(C)CCCC1(C)C", "classification": "label 0"}
{"compound": "N#Cc1ccc(C(=O)O)cc1", "classification": "label 0"}
{"compound": "CC(=O)NCCCCCC(=O)O", "classification": "label 0"}
{"compound": "Nc1nnc(-c2cccc(Cl)c2Cl)c(N)n1", "classification": "label 0"}
{"compound": "CCOC(=O)c1ncn2c1CN(C)C(=O)c1cc(F)ccc1-2", "classification": "label 0"}
{"compound": "C=C(C)C(=O)OCc1ccccc1", "classification": "label 0"}
{"compound": "CN(C)c1ccc(C=O)cc1", "classification": "label 0"}
{"compound": "O=C(OCC1(COC(=O)c2cccnc2)CCCC(COC(=O)c2cccnc2)(COC(=O)c2cccnc2)C1O)c1cccnc1", "classification": "label 0"}
{"compound": "c1ccc2nccnc2c1", "classification": "label 0"}
{"compound": "NCCN1CCOCC1", "classification": "label 0"}
{"compound": "Cc1cc(C(C)(C)C)c(O)c(C)c1CC1=NCCN1", "classification": "label 0"}
{"compound": "O=C(CS(=O)Cc1ccco1)NC/C=C\\COc1cc(CN2CCCCC2)ccn1 (centres undefined)", "classification": "label 0"}
{"compound": "C[Si](C)(C)C", "classification": "label 0"}
{"compound": "C=CC(OCC)OCC", "classification": "label 1"}
{"compound": "CCOc1cc([N+](=O)[O-])c(OCC)cc1N1CCOCC1", "classification": "label 0"}

Measured values drawn from PubChem BioAssay (Tox21) for this set.
